- Tested on: P12-Ichikawa
- method_summary: cell viability relative to DMSO control; higher = less cytotoxic
- settings: RPMI 5 mM glucose + 10% dialyzed FBS; 48 h; 0.000781 µM

{"columns": ["smi", "tested_system", "cell viability"],
 "data": [
  ["CN1CCCN(CC1)C2=CC=C3C(=O)\\C(=C/4SC5=C(C=CC=C5)N4C3=N2)C(=O)NCC6=CN=C(C)C=N6", "P12-Ichikawa", "103%"],
  ["CC[C@H]1OC(=O)[C@H](C)C(=O)[C@H](C)[C@@H](O[C@H]2O[C@H](C)C[C@H](N(C)C)[C@H]2O)[C@](C)(OC)C[C@@H](C)C(=O)[C@H](C)[C@H]2N(CCCCn3cnc(-c4cccnc4)c3)C(=O)O[C@]12C", "P12-Ichikawa", "111%"],
  ["CC(C)(O)CC(=O)NCCn1ccc2ncnc(Nc3ccc(Oc4cccc(C(F)(F)F)c4)c(Cl)c3)c21", "P12-Ichikawa", "104%"]
]}
